# Test system: Pooled human hepatocytes
# Assay Name: Hepatocyte elimination (in vitro metabolic stability, percent parent remaining by LC/MS/MS)
# Type: in vitro ADME
# Conditions: TIME 30 min
Endpoint: Hepatocyte elimination, % remaining (%)

# example entries with known answers
Molecule: NCCS.O=C(O)C(O)C(O)C(=O)O (stereo not shown) [Cysteamine Bitartrate, reference compound]
Hepatocyte elimination, % remaining, %: 2.7

Molecule: NCCSSCCN [Cystamine]
Hepatocyte elimination, % remaining, %: 6.5

P. [2H]C(CN)SSC([2H])CN (stereo not shown) [drawing 24]
Q. [2H]C([2H])(CN)SSC([2H])([2H])CN [drawing 25]
Exercise: compare P and Q ; which one has the greater Hepatocyte elimination, % remaining? # answer = label of selected item
Q
